Biological target: T1, human NPRA (human, UniProt P16066 33-1061)
T1 sequence (looked up): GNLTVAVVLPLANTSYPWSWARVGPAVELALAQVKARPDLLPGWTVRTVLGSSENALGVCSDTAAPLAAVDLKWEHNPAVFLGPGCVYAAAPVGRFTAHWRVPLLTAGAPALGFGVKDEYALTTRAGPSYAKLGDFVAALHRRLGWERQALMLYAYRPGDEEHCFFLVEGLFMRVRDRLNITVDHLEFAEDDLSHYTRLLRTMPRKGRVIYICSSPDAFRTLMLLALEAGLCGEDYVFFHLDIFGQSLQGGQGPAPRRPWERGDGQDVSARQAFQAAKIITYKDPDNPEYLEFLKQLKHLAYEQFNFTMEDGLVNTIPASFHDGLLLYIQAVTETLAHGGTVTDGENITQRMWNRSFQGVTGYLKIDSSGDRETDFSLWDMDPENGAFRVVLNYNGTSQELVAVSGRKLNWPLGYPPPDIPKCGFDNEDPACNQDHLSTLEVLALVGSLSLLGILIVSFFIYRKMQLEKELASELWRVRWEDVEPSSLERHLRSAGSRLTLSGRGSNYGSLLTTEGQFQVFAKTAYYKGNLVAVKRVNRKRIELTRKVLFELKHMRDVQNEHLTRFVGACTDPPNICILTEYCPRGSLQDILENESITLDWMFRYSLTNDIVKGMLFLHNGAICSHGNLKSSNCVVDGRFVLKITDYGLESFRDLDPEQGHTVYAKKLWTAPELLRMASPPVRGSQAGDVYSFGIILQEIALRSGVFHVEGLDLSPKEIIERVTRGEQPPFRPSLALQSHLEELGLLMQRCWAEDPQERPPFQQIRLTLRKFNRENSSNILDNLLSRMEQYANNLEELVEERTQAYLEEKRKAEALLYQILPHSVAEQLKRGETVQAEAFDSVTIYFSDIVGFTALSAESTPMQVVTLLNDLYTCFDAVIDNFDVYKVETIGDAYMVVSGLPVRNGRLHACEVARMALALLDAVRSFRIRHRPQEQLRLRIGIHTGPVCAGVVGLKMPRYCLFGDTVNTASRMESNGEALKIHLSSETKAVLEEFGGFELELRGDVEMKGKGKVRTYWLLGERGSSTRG
Assay: cell-based or functional assay
Numbered stars: 1 amine (or outer) side, 2 acyl side, 3 side chain; on linkers, the order of the positions; unused ones are H or OH. Bridge positions count the residues as written; N and C are the ends. Square brackets hold non-standard residues; d marks the D form. * marks the point of attachment. thioacetal = thioacetal linkage between two cysteines (intrachain bond at the bracketed Cys); C20 diacid = O=C(O)CCCCCCCCCCCCCCCCCCC(=O)*; γGlu = O=C(O)[C@H](CCC(=O)[*:2])N[*:1]; 4Pal = N[C@@H](Cc1ccncc1)C(=O)O
Each entry below carries its recorded cGMP Assay (EC50, pM) w/Casein.
# unit: pM | format: bare number

Prompt line: Report cGMP Assay (EC50, pM) w/Casein, nothing else, for this binder: {C20 diacid}-[γGlu]EKEKEKGS[4Pal]RRSSCFGGRIDRIGHQSGLGCPSFRHGGKSSGAPPPS-NH2 (bridge 15-31 via thioacetal) [Example 72]
Response line: 588

Prompt line: Report cGMP Assay (EC50, pM) w/Casein, nothing else, for this binder: XEKEKEKGSXRRSSCFGGRIDRIGHQSGLGCPSFRHGGPSSGAPPPS (HOOC-(CH2)18-CO-(γGlu)-EKEKEKGS-4Pal-RRSS[CFGGRIDRIGHQSGLGC]PSFRHGGPSSGAPPPS-NH2; disulfide linkage between the bracketed Cys) [Example 1]
Response line: 335

Prompt line: Report cGMP Assay (EC50, pM) w/Casein, nothing else, for this binder: EKXRSSCFGKRIDRIGHQSGLGCPSFRHGGKSSGAPPPS (HOOC-(CH2)18-CO-(γGlu)-EKEKEKG-PEG24-EK-βAla-RSS[CFGKRIDRIGHQSGLGC]PSFRHGGKSSGAPPPS-NH2; thioacetal linkage between the bracketed Cys) [Example 3]
Response line: 980
